Quick list: EC50 per entry.
tested on: soluble histidine-tagged form of human TLR4/MD2 complex (human, UniProt Q9Y6Y9 19-160)
Sequence (Q9Y6Y9 19-160, one chain of several): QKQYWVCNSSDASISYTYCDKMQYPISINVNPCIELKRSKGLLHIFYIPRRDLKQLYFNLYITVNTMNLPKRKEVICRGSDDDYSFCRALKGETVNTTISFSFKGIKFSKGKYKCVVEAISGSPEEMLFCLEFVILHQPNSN
measurement protocol: competitive ELISA; coated 15C1 as competitor, soluble His-tagged human TLR4/MD2, Penta-His-HRP
Respond with the bare value in µg/mL.

Problem: Recorded EC50 of 1E11.C2 antibody (IgG1) (antibody, V domains shown) VH: QVQLQESGPGLVKPSDTLSLTCAVSGYPIRFGYSWHWIRQPPGKGLEWMGYIHYSGYTDFNPSLKTRITISRDTSKNQFSLKLSSVTAVDTAVYYCARKDSGNYFPYWGQGTLVTVSS VL: EIVLTQSPDFQSVTPKEKVTITCRASQSISDHLHWYQQKPDQSPKLLIKYASHAISGVPSRFSGSGSGTDFTLTINSLEAEDAATYYCQQGHSFPLTFGGGTKVEIK , please.
Result: 0.036

Problem: Recorded EC50 of 1E11.E4 antibody (IgG1) (antibody, V domains shown) VH: QVQLQESGPGLVKPSDTLSLTCAVSGYSITGGYSWHWIRQPPGKGLEWMGYIHYSGYTDFNPSLKTRITISRDTSKNQFSLKLSSVTAVDTAVYYCARKDSGNYFPYWGQGTLVTVSS VL: EIVLTQSPDFQSVTPKEKVTITCRASQSISDHLHWYQQKPDQSPKLLIKYASHAISGVPSRFSGSGSGTDFTLTINSLEAEDAATYYCQQGYDYPLTFGGGTKVEIK , please.
Result: 0.13

Problem: Recorded EC50 of 1E11.E1 antibody (IgG1) (antibody, V domains shown) VH: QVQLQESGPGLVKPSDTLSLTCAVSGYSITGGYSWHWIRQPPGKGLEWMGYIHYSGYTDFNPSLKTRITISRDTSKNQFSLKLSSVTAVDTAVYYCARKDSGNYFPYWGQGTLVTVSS VL: EIVLTQSPDFQSVTPKEKVTITCRASQSISDHLHWYQQKPDQSPKLLIKYASHAISGVPSRFSGSGSGTDFTLTINSLEAEDAATYYCQQGNDFPVTFGGGTKVEIK , please.
Result: 0.157
